- Tgt: GTPase KRas [1-169,G12C,C118A] (Homo sapiens, UniProt P01116, C118A/G12C)
- Construct: 1-169
- Sequence (P01116 1-169 G12C/C118A): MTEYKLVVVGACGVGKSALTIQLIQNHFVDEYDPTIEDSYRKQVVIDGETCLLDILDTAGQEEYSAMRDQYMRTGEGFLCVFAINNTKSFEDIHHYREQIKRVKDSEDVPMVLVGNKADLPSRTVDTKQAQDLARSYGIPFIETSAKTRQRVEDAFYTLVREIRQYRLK
Property name: IC50 (nM)
Numbers only; they are read as nM.

[Q] State its IC50: C=CC(=O)N1CC2(CCN(c3nc4c(c(N[C@@H](CC(C)C)Cn5ccnn5)n3)CCC(C)(C)C4)C2)C1 [WO2022093856, Example 1-47]
[A] 822
